# System: BDF1 mice, Adenocarcinoma 755 s.c., tumor weight T/C
# Method Summary: NCI In Vivo Anticancer Drug Screen. Data for tumor model Adenocarcinoma 755 (subcutaneous) in B6D2F1 (BDF1) mice
# Condition Parameters: endpoint: mean tumor weight; dose: 2.0 mg/kg/injection; schedule: Q01DX011 (ip); vehicle: carboxymethylcellulose (CMC); higher = larger tumour
Each entry below lists one item and its recorded T/C value.

## Input Reported T/C, molecule O=[As]O : ____
## Output 19 % of control

## Input // repeat for Nc1nc(=S)c2[nH]cnc2[nH]1 and report
## Output 1 % of control

## Input Follow-up item: COc1cc(-c2ccc(N=Nc3ccc4c(S(=O)(=O)O)cc(S(=O)(=O)O)c(N)c4c3O)c(OC)c2)ccc1N=Nc1ccc2c(S(=O)(=O)O)cc(S(=O)(=O)O)c(N)c2c1O
## Output 38 % of control

## Input Try the molecule CCCCNS(=O)(=O)c1ncnc2nc[nH]c12
## Output 115 % of control

## Input Same question, CN(C)[C@@H]1C(=O)C(C(=O)NCc2nc3[nH]cnc(=S)c3[nH]2)=C(O)[C@@]2(O)C(=O)C3=C(O)c4c(O)cccc4[C@@](C)(O)[C@H]3C[C@@H]12 this time
## Output 44 % of control
